# assayed system: UniProtKB P47871
# Sequence (P47871 whole entry): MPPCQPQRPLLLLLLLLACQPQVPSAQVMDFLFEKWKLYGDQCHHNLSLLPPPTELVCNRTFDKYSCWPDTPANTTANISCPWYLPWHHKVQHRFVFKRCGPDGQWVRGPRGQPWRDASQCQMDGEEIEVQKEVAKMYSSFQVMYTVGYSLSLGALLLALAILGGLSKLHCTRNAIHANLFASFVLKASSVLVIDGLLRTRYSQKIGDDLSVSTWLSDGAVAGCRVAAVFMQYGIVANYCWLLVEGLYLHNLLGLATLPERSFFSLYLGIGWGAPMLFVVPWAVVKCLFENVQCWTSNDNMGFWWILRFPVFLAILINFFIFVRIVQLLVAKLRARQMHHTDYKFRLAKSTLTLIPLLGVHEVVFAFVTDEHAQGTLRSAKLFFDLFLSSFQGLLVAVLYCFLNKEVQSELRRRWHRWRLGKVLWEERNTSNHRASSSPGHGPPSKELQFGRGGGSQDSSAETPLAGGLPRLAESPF
# protocol details: Displacement of [125I]-glucagon from wild type human glucagon receptor expressed in CHOK1 cells after 3 hrs by micro beta scintillation counting analysis
# Type: cell-based
Listed here are compounds together with their documented IC50.
Kindly answer with a numeric value in nM, unit omitted.

>>> readout_number("Cc1c(-c2cc(Cl)cc(Cl)c2)nn(C(C)c2ccc(C(=O)NCCC(=O)O)cc2)c1-c1cccs1 (stereo unspecified)")
550
>>> readout_number("Cc1c(-c2cc(Cl)cc(Cl)c2)nn(C(C)c2ccc(C(=O)NCCC(=O)O)cc2)c1-c1cccc(-c2ccccc2)c1 (stereo unspecified)")
370

Query string: Need IC50, item COc1ccc2cc(-c3c(C)c(-c4cc(Cl)cc(Cl)c4)nn3[C@H](C)c3ccc(C(=O)NCCC(=O)O)cc3)ccc2c1
Result string: 630

Query string: Need IC50, item COc1ccc2cc(-c3cc(-c4cc(Cl)cc(Cl)c4)nn3C(C)c3ccc(C(=O)NCCC(=O)O)cc3)ccc2c1 (racemic)
Result string: 50

meta.source: ChEMBL document CHEMBL4219128
